test system: Pseudomonas fluorescens; experiment: Antibacterial activity against Pseudomonas fluorescens after 24 hrs by MTT assay; format: functional
Reported property: MIC

1. CCCCNCCCOc1cc(O)c2c(=O)cc(-c3ccccc3)oc2c1 | 12.5 µg/mL

Ask: For CCCNCCOc1cc(O)c2c(=O)cc(-c3ccccc3)oc2c1 , what is its reported MIC?
Reply: 25 µg/mL

Ask: Would you mind telling me what MIC value was observed for O=c1cc(-c2ccccc2)oc2cc(O)cc(O)c12 ?
Reply: > 50 µg/mL

* * *

Parameter: MIC. Scope: all listed entries.
tested on: Bacillus subtilis; assay: Antibacterial activity against Bacillus subtilis after 24 hrs by MTT assay; assay type: functional
Answer format: numeric, µg/mL implied, no suffix.

1) O=c1cc(-c2ccccc2)oc2cc(OCCN3CCCC3)cc(O)c12 | 25
2) CN1CCN(CCOc2cc(O)c3c(=O)cc(-c4ccccc4)oc3c2)CC1 | 50
3) CCCNCCCOc1cc(O)c2c(=O)cc(-c3ccccc3)oc2c1 | 25
4) O=c1cc(-c2ccccc2)oc2cc(OCCCNCCO)cc(O)c12 | 12.5

Ask: Dear colleague, I am looking for the recorded MIC of the following molecule: CCCNCCOc1cc(O)c2c(=O)cc(-c3ccccc3)oc2c1
Reply: 50

Ask: Suppose we examine the molecule O=c1cc(-c2ccccc2)oc2cc(OCCCN3CCNCC3)cc(O)c12 ; what MIC value has been reported?
Reply: 12.5

Ask: Given the molecule O=c1cc(-c2ccccc2)oc2cc(OCCCN3CCCC3)cc(O)c12 , what is its reported MIC?
Reply: 6.25

Ask: Consider the molecule shown here: CCCCNCCCOc1cc(O)c2c(=O)cc(-c3ccccc3)oc2c1 What is its recorded MIC?
Reply: 25

Ask: Suppose we examine the molecule CN1CCN(CCCOc2cc(O)c3c(=O)cc(-c4ccccc4)oc3c2)CC1 ; what MIC value has been reported?
Reply: 6.25

Ask: Request the reported MIC associated with O=c1cc(-c2ccccc2)oc2cc(OCCN3CCCCC3)cc(O)c12
Reply: 25

Ask: Looking for the measured MIC of O=c1cc(-c2ccccc2)oc2cc(OCCN3CCNCC3)cc(O)c12 , can you help?
Reply: 25

Ask: For the molecule shown here, CCCN(CCC)CCCOc1cc(O)c2c(=O)cc(-c3ccccc3)oc2c1 , give the reported MIC.
Reply: 25

Ask: Param item = NC[C@H]1O[C@H](O[C@H]2[C@H](O)[C@@H](O[C@H]3O[C@H](CO)[C@@H](O)[C@H](N)[C@H]3O)[C@H](N)C[C@@H]2N)[C@H](N)[C@@H](O)[C@@H]1O [BEKANAMYCIN] ; retrieve measured MIC.
Reply: 1.56
